- Tested on: NCI-H226 cells
- experiment.notes: Viability assay in NCI-H226 (Yap-dependent) cells, CyQUANT
- Format: cell-based
- condition.label: Homo sapiens, 96 hour incubation
For each of the compounds below, state its IC50.

Exercise: Give recorded IC50 with NCI-H226 cells for the following compound: CNC(=O)c1ccc2c(c1)c1ccc(C)cc1n2-c1ccc(C(F)(F)F)cc1 [Compound 26]
Solution: 0.1 to 1 µM

Exercise: Item: CNC(=O)c1ccc2c(c1)c1nc(C(F)(F)F)ccc1n2-c1ccc(C(F)(F)F)cc1 [Compound 29]
Solution: > 10 µM

Exercise: Now this one: O=C(O)c1ccc2c(c1)c1nc(C(F)(F)F)ccc1n2-c1ccc(C(F)(F)F)cc1 [Compound 16]
Solution: 0.001 to 0.1 µM

Exercise: Please answer likewise for Cc1ccc2c(c1)c1cc(C(=O)O)ccc1n2-c1ccc(OC(F)(F)F)cc1 [Compound 63]
Solution: 1 to 10 µM

Exercise: # repeat for Cc1ccc2c3cc(C(=O)O)ccc3n(-c3ccc(C(F)(F)F)cc3)c2c1 [Compound 20]
Solution: 1 to 10 µM

Exercise: One more compound: CCc1ccc2c(c1)c1cc(C(=O)O)ccc1n2-c1ccc(C(F)(F)F)cc1 [Compound 47]
Solution: 0.001 to 0.1 µM

Exercise: Continue with Cc1ccc2c(c1)c1cc(C(=O)NCCO)ccc1n2-c1ccc(C(F)(F)F)cc1 [Compound 38]
Solution: 0.001 to 0.1 µM

Exercise: Record: Cc1ccc2c(c1)c1cc(C(=O)O)ccc1n2-c1ccc(C(F)(F)F)cc1 [Compound 10]
Solution: 0.001 to 0.1 µM

====

parameter.measured: melting point

Exercise: Please report the recorded melting point for CNC(=O)c1ccc2c(c1)c1ccc(C)cc1n2-c1ccc(C(F)(F)F)cc1 [Compound 26] .
Solution: 230 to 232 °C

Exercise: Item: Cc1ccc2c3cc(C(=O)O)ccc3n(-c3ccc(C(F)(F)F)cc3)c2c1 [Compound 20]
Solution: 250 to 252 °C

Exercise: Ok, now CNC(=O)c1ccc2c(c1)c1nc(F)ccc1n2-c1ccc(C(F)(F)F)cc1 [Compound 25]
Solution: 250 to 252 °C

Exercise: Proceed to CNC(=O)c1ccc2c(c1)c1nc(C(F)(F)F)ccc1n2-c1ccc(C(F)(F)F)cc1 [Compound 29]
Solution: 225 to 227 °C

====

Exercise: state measured melting point for each of the compounds provided.

Exercise: Return reported melting point; argument: CNC(=O)c1ccc2c(c1)c1cc(C(F)(F)F)ccc1n2-c1ccc(C(F)(F)F)cc1
Solution: 242 to 244 °C

Exercise: Proceed to COc1ccc2c(n1)c1cc(C(=O)O)ccc1n2-c1ccc(C(F)(F)F)cc1
Solution: 245 to 247 °C

Exercise: Also CC(C)c1ccc2c(c1)c1cc(C(=O)O)ccc1n2-c1ccc(C(F)(F)F)cc1 , if possible.
Solution: 271 to 272 °C

Exercise: Next entry: O=C(O)c1ccc2c(c1)c1nc(F)ccc1n2-c1ccc(C(F)(F)F)cc1
Solution: 300 °C

Exercise: Same question for CNC(=O)c1ccc2c(c1)c1cc(C(C)C)ccc1n2-c1ccc(C(F)(F)F)cc1 please.
Solution: 141 to 142 °C

Exercise: And for Cc1ccc2c(n1)c1cc(C(=O)O)ccc1n2-c1ccc(C(F)(F)F)cc1 ?
Solution: 300 °C

Exercise: Now the same for O=C(O)c1cc2c3cccnc3n(-c3ccc(C(F)(F)F)cc3)c2cn1
Solution: 185 to 188 °C

Exercise: Further, for O=C(O)c1cc2c3cccnc3n(Cc3ccc(C(F)(F)F)cc3)c2cn1 ?
Solution: 195 to 200 °C

====

- System: NCI-H226 cells
- experiment.notes: Viability assay in NCI-H226 (Yap-dependent) cells, CyQUANT
- Format: cell-based
- condition.label: Homo sapiens, 96 hour incubation
- Procedure: The ability of YAP-TEAD inhibitors to inhibit tumor cell growth was evaluated using two different cell lines: NCI-H226, which is a YAP dependent cell line, and SW620 cells, where YAP and TAZ were knocked out using CRISPR to generate a YAP independent cell line. […] The total cell count was determined, and 20 μl of the desired cell number was added to each well of a 384 well plate using a Multidrop Combi. […]
parameter.measured: IC50

Exercise: I would be grateful if you could share the reported IC50 for Cc1ccc2c(c1)c1cc(C(=O)N[C@](C)(CO)c3ccccc3)ccc1n2-c1ccc(C(F)(F)F)cc1 [Compound 46] .
Solution: 0.1 to 1 µM

Exercise: Would you mind doing Cc1ccc2c(c1)c1cc(C(=O)NC(CO)C(C)C)ccc1n2-c1ccc(C(F)(F)F)cc1 (stereo not shown) [Compound 41] as well?
Solution: 0.1 to 1 µM

Exercise: Then this compound: O=C(O)c1ccc2c(c1)c1cc(Cc3ccccc3)ccc1n2-c1ccc(C(F)(F)F)cc1 [Compound 1]
Solution: 0.1 to 1 µM

Exercise: Param item: CNC(=O)c1ccc2c(c1)c1cc(C#N)ccc1n2-c1ccc(C(F)(F)F)cc1 [Compound 33]
Solution: 0.001 to 0.1 µM

====

Hi there, I'd appreciate the recorded melting point for every entry that follows.

Exercise: Dear colleague, I am looking for the recorded melting point of the following molecule: CNC(=O)c1ccc2c(c1)c1cc(C#N)ccc1n2-c1ccc(C(F)(F)F)cc1
Solution: 270 to 272 °C

Exercise: Quick one: CNC(=O)c1ccc2c(c1)c1cc(C)ccc1n2-c1ccc(C(F)(F)F)cc1
Solution: 184 to 186 °C

Exercise: For O=C(O)c1ccc2c(c1)c1cc(C(F)(F)F)ccc1n2-c1ccc(C(F)(F)F)cc1 then?
Solution: 292 to 294 °C

Exercise: And then O=C(O)c1ccc2c(c1)c1nc(C(F)(F)F)ccc1n2-c1ccc(C(F)(F)F)cc1 , what is it?
Solution: 160 to 162 °C

Exercise: # iterate: CNC(=O)c1ccc2c(c1)c1nc(OC)ccc1n2-c1ccc(C(F)(F)F)cc1
Solution: 180 to 182 °C

Exercise: How about this molecule: CNC(=O)c1ccc2c(c1)c1nc(C)ccc1n2-c1ccc(C(F)(F)F)cc1
Solution: 134 to 136 °C

Exercise: Here is the next molecule: O=C(O)c1ccc2c(c1)c1cc(F)ccc1n2-c1ccc(C(F)(F)F)cc1
Solution: 202 to 204 °C

Exercise: Please give the result for CNC(=O)c1ccc2c(c1)c1cc(F)ccc1n2-c1ccc(C(F)(F)F)cc1 too.
Solution: 270 to 272 °C

====

For each record, write down the corresponding IC50.
- Test system: NCI-H226 cells
- experiment.notes: Viability assay in NCI-H226 (Yap-dependent) cells, CyQUANT
- Format: cell-based
- condition.label: Homo sapiens, 96 hour incubation

Exercise: # returns recorded IC50 (system: NCI-H226 cells) for O=C(O)c1cc2c3cccnc3n(-c3ccc(C(F)(F)F)cc3)c2cn1
Solution: 0.1 to 1 µM

Exercise: Okay, and Cc1ccc2c(c1)c1cc(C(=O)NCc3cccnc3)ccc1n2-c1ccc(C(F)(F)F)cc1 ?
Solution: 0.001 to 0.1 µM

Exercise: And what about the molecule Cc1ccc2c(c1)c1cc(C(=O)N3CCC(O)C3)ccc1n2-c1ccc(C(F)(F)F)cc1 (stereo not shown) ?
Solution: 0.1 to 1 µM

Exercise: Can you handle N#Cc1ccc2c(c1)c1cc(C(=O)O)ccc1n2-c1ccc(C(F)(F)F)cc1 next?
Solution: 1 to 10 µM

Exercise: Consider next the molecule Cc1ccc2c(c1)c1cc(C(=O)NCCn3ccnc3)ccc1n2-c1ccc(C(F)(F)F)cc1 in the same way.
Solution: 0.1 to 1 µM

Exercise: Here is the next molecule: O=C(O)c1ccc2c(c1)c1cc(C(F)(F)F)ccc1n2-c1ccc(C(F)(F)F)cc1
Solution: 0.1 to 1 µM

Exercise: Same read-out for CNC(=O)c1ccc2c(c1)c1cc(C(C)C)ccc1n2-c1ccc(C(F)(F)F)cc1 ?
Solution: 0.1 to 1 µM

Exercise: What about this molecule? CNC(=O)c1ccc2c(c1)c1nc(OC)ccc1n2-c1ccc(C(F)(F)F)cc1
Solution: 0.001 to 0.1 µM

Exercise: Next up: Cc1ccc2c(n1)c1cc(C(=O)O)ccc1n2-c1ccc(C(F)(F)F)cc1
Solution: 0.001 to 0.1 µM

Exercise: Ok, now Cc1ccc2c(c1)c1cc(C(=O)N3CCCC(O)C3)ccc1n2-c1ccc(C(F)(F)F)cc1 (stereo not shown)
Solution: 0.1 to 1 µM

Exercise: Record: Cc1ccc2c(c1)c1cc(C(=O)NC3CC3)ccc1n2-c1ccc(C(F)(F)F)cc1
Solution: 0.001 to 0.1 µM

Exercise: Let us now turn to O=C(O)c1ccc2c(c1)c1nc(F)ccc1n2-c1ccc(C(F)(F)F)cc1
Solution: 0.1 to 1 µM

Exercise: Cc1ccc2c(c1)c1cc(C(=O)N[C@@H](CO)C3CCC3)ccc1n2-c1ccc(C(F)(F)F)cc1 ?
Solution: 0.001 to 0.1 µM

Exercise: Try the molecule CC(C)c1ccc2c(c1)c1cc(C(=O)O)ccc1n2-c1ccc(C(F)(F)F)cc1
Solution: 0.1 to 1 µM

Exercise: Consider next the molecule Cc1cc2c3cc(C(=O)O)ccc3n(-c3ccc(C(F)(F)F)cc3)c2cc1C in the same way.
Solution: 0.1 to 1 µM

Exercise: Moving on to the next molecule: Cc1ccc2c(c1)c1cc(C(=O)NC(C)CO)ccc1n2-c1ccc(C(F)(F)F)cc1 (stereo not shown)
Solution: 0.001 to 0.1 µM

Exercise: Next entry: Cc1ccc2c(c1)c1cc(C(=O)NCc3ccncn3)ccc1n2-c1ccc(C(F)(F)F)cc1
Solution: 0.001 to 0.1 µM

Exercise: Same again, this time with Cc1ccc2c(c1)c1cc(C(=O)NC3(CO)CCC3)ccc1n2-c1ccc(C(F)(F)F)cc1
Solution: 0.1 to 1 µM

Exercise: Please answer likewise for COc1ccc2c(n1)c1cc(C(=O)O)ccc1n2-c1ccc(C(F)(F)F)cc1
Solution: 0.1 to 1 µM
